target: T1, biotin-labeled human CD137 fused to human IgG1 Fc fragment (human CD137-Fc) (human, biotin-labeled); test: competitive bead ELISA, biotin-human CD137-Fc on beads, 100 ng IgG, competitor free CD3 epsilon peptide 62.5 pmol
T1 construct: also called biotin-human CD137-Fc
Recorded ELISA signal with Free CD3e 62.5 pmol, one value per entry.
I only need the number, thanks.

See these solved cases before continuing.
INSERT INTO assay_data (binder, recorded_result) VALUES
  ('DXDU01_3#051 (antibody, human IgG1, V domains shown, also called dBBDu127) VH: QVQLVESGGGLVQPGRSLRLSCAASGFTFSNAWMHWVRQAPGKGLEWVAQIKDRGQQYNAYYAPSVKGRFTISRDDSKNSIYLQMNSLKTEDTAVYYCHYVHYASASSVLPGYGVDAWGQGTTVTVSS VL: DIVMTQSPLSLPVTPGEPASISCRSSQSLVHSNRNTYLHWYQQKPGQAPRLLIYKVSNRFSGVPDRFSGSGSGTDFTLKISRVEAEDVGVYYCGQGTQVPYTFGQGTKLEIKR', 10800),
  ('DXDU01_3#019 (antibody, human IgG1, V domains shown, also called dBBDu125) VH: QVQLVESGGGLVQPGRSLRLSCAASGFTFSIAWMHWVRQAPGKGLEWVAQIKDKVNGYTAYYAESVKGRFTISRDDSKNSIYLQMNSLKTEDTAVYYCRYVHYAAYYDVLGYGGVDAWGQGTTVTVSS VL: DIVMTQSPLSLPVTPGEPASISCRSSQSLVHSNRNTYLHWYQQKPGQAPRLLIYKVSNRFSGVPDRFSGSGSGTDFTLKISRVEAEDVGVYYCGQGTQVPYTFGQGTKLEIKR', 12800),
  ('DADU01_3#001 (antibody, human IgG1, V domains shown, also called dBBDu_126; dBBDu126) VH: QVQLVESGGGLVQPGRSLRLSCAASGFTFSIAWMHWVRQAPGKGLEWVAQIKDRVNAYEAYYAPSVKGRFTISRDDSKNSIYLQMNSLKTEDTAVYYCRYVHYASYYDLLGYGGVDAWGQGTTVTVSS VL: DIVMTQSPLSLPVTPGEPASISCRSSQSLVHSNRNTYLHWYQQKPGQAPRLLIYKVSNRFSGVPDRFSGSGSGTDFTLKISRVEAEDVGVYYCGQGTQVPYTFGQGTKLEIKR', 15100);

// next entry
Entry DXDU01_3#094 (antibody, human IgG1, V domains shown, also called dBBDu121) VH: QVQLVESGGGLVQPGRSLRLSCAASGFTFSNAWMHWVRQAPGKGLEWVAQIKDKGNAYAAYYAPSVKGRFTISRDDSKNSIYLQMNSLKTEDTAVYYCHYVHYASAAGGLPGFGVDAWGQGTTVTVSS VL: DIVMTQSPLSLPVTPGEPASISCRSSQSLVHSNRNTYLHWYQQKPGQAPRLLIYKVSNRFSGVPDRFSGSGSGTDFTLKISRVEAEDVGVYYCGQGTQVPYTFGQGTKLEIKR , ELISA signal with Free CD3e 62.5 pmol reported as 9660
